Molecular target: IGF1R (Homo sapiens, UniProt P08069)
Sequence (P08069 31-1367, species assumed): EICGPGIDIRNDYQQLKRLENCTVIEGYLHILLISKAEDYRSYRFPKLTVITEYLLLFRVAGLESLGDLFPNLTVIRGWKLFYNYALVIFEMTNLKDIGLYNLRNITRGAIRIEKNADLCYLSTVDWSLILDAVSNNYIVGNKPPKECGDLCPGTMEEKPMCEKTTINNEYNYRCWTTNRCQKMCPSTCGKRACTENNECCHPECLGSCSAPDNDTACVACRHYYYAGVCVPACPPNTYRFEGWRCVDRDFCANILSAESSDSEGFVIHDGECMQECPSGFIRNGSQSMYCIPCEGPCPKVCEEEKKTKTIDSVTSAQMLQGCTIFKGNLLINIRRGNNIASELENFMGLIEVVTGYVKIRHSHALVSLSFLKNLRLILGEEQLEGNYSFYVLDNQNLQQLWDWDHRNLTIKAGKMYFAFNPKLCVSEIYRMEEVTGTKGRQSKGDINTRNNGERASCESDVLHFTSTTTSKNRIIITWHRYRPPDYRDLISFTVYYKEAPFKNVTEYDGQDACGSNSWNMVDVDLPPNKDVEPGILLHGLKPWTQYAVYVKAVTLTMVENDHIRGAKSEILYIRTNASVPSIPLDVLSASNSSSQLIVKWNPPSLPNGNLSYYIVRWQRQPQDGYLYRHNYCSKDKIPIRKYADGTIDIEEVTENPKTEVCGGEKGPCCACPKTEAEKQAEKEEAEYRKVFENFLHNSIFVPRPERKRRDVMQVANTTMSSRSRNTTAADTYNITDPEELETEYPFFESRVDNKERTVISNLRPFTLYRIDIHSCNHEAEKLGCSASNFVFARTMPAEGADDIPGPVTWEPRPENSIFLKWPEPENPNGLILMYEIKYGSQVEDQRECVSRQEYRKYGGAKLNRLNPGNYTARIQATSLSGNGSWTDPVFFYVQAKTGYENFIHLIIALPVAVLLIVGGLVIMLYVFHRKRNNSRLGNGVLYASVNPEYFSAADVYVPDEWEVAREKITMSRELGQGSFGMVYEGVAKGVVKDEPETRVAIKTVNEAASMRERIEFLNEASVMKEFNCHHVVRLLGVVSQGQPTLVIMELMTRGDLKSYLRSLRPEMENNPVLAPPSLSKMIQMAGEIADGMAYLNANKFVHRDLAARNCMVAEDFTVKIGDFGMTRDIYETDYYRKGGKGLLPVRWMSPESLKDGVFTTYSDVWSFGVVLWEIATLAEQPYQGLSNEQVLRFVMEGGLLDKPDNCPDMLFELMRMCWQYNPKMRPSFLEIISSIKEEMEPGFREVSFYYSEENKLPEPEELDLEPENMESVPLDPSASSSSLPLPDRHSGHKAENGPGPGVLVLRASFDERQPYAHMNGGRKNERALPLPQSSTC
Binary label based on IC50 with cut-off 600 nM: below gives MET, not below gives NOT MET.

The following compounds have reported results that may help.
recordsmiles=CCc1cc(Nc2ncc(Br)c(Nc3ccc(-c4ccc(F)cc4F)cc3P(C)(C)=O)n2)c(OC)cc1N1CCC(N2CCN(C)CC2)CC1 labelclass=MET
recordsmiles=CCc1cc(Nc2ncc(Cl)c(Nc3ccc(-c4cccc5ocnc45)cc3P(C)(C)=O)n2)c(OC)cc1N1CCC(N2CCN(C)CC2)CC1 labelclass="NOT MET"
recordsmiles=C#Cc1cnc(-c2ccc(Nc3nc(Nc4cc(OC)c(N5CCC(N6CCN(C)CC6)CC5)cc4C)ncc3Br)c(P(C)(C)=O)c2)cn1 labelclass=MET

Q) Input `COc1cc(Nc2ncc(Br)c(Nc3ccc(-c4cnccn4)cc3P(C)(C)=O)n2)c(C)cc1N1CCOCC1` ; condition: IC50 strictly below 600 nM. Does it hold?
A) MET

Q) Further, for `CCc1cc(Nc2ncc(Br)c(Nc3ccc(-c4ncnn4C)cc3P(C)(C)=O)n2)c(OC)cc1N1CCC(N2CCN(C)CC2)CC1` ?
A) NOT MET
